B1: HDV Ribozyme (parent)
chain: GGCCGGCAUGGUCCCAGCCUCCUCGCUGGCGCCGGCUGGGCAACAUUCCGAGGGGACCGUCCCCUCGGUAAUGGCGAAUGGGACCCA

- Variants of: B1
- assayRemarks: self-cleavage, relative activity (ratio to wild type); higher = more cleavage; co-transcriptional
Listed next: entries and their corresponding self-cleavage.

mutation: G5U G54U
self-cleavage: 0.612

mutation: A42U U79G
self-cleavage: 0.222

mutation: C36G A83G
self-cleavage: 0.151

mutation: G28A C44A
self-cleavage: 0.104

mutation: C18G G55C
self-cleavage: 0.185

mutation: C57G U79C
self-cleavage: 0.598

mutation: C4U
self-cleavage: 0.758

mutation: C75U G80A
self-cleavage: 0.0573

mutation: A56G U79A
self-cleavage: 0.277

mutation: C63G G74U
self-cleavage: 0.529

mutation: G28A C33U
self-cleavage: 0.0234

mutation: U47G C49U
self-cleavage: 1.32

mutation: C49A G55C
self-cleavage: 0.927

mutation: C32U C57A
self-cleavage: 0.817

mutation: G55U C64G
self-cleavage: 0.781

mutation: C30U C75G
self-cleavage: 0.0554

mutation: G59C G67U
self-cleavage: 1.09

mutation: G1C C58U
self-cleavage: 0.0923

mutation: G5A G11C
self-cleavage: 0.214

mutation: G74C G80U
self-cleavage: 0.127

mutation: U9G C22A
self-cleavage: 0.314

mutation: U9C C15G
self-cleavage: 0.104

Taken from the RNAGym collection of RNA variant scans (doi:10.7554/elife.80360).
